pIC50: −log10 of the molar value.
Form: system (Vasopressin V2 receptor (Homo sapiens, UniProt P30518)), quantity (pIC50), values below.
endpoint: pIC50

- compound: "COc1cc(C(=O)N2CCCC(O)c3cc(Cl)ccc32)ccc1NC(=O)c1ccccc1C (stereo unspecified) [benzazepine derivative, 34]"
  meas.value: 8.30
- compound: "Cc1ccccc1C(=O)Nc1ccc(C(=O)N2CCCC(N(C)C)c3cccc(Cl)c32)cc1 (stereo unspecified) [benzazepine derivative, 16]"
  meas.value: 6.85
- compound: "Cc1ccccc1C(=O)Nc1ccc(C(=O)N2CCCC(N(C)C)c3cc(Cl)ccc32)cc1 (stereo unspecified) [benzazepine derivative, 14]"
  meas.value: 7.60
- compound: "Cc1ccccc1C(=O)Nc1ccc(C(=O)N2CCCC(O)c3cc(Cl)ccc32)cc1 (stereo unspecified) [benzazepine derivative, 20]"
  meas.value: 8.52
- compound: "C=CCOC1CCCN(C(=O)c2ccc(NC(=O)c3ccccc3C)cc2)c2ccc(Cl)cc21 (stereo unspecified) [benzazepine derivative, 22]"
  meas.value: 8.05
- compound: "CNC1CCCN(C(=O)c2ccc(NC(=O)c3ccccc3C)cc2)c2ccc(Cl)cc21 (stereo unspecified) [benzazepine derivative, 13a]"
  meas.value: 8.15
